Known IC50 at 48 h of a selection of compounds
- Measurement Protocol: Mammalian cell toxicity (Cell Titer-Glo)
- Assay type: cell-based
- Condition Label: human; HepG2 cells, 48 h incubation, Cell Titer-Glo luminescence

1) Cn1cc(-c2ccnc3c2C(=O)N(CC2CCN(CC(=O)OC(Cn4cncn4)(Cn4cncn4)c4ccc(F)cc4F)CC2)C3)c(-c2ccc(F)cc2)n1 [Compound I-249] = > 50 µM
2) OC(CNCCOc1cccc2c(-c3ccncc3)c(-c3ccc(F)cc3)nn12)(Cn1cncn1)c1ccc(F)cc1F (stereo not shown) [Compound I-153] = > 20 µM
3) OC(Cn1cncn1)(c1ccc(F)cc1F)C(F)(F)c1ccc(C#Cc2ccc(NCc3ccc4c(-c5ccncc5)c(-c5ccc(F)cc5)nn4c3)cc2)cn1 (stereo not shown) [Compound I-268] = > 50 µM

// returns reported IC50 at 48 h for input OC(COc1cccc2c(-c3ccncc3)c(-c3ccc(F)cc3)nn12)(Cn1cncn1)c1ccc(F)cc1F (stereo not shown) [Compound I-139]
> 20 µM
